Target: human TRPM8 (Homo sapiens, UniProt Q7Z2W7)
Construct: expressed in transfected cells; host or cells: T-REx-CHO (Chinese hamster ovary), tetracycline-induced
Sequence (Q7Z2W7 whole entry): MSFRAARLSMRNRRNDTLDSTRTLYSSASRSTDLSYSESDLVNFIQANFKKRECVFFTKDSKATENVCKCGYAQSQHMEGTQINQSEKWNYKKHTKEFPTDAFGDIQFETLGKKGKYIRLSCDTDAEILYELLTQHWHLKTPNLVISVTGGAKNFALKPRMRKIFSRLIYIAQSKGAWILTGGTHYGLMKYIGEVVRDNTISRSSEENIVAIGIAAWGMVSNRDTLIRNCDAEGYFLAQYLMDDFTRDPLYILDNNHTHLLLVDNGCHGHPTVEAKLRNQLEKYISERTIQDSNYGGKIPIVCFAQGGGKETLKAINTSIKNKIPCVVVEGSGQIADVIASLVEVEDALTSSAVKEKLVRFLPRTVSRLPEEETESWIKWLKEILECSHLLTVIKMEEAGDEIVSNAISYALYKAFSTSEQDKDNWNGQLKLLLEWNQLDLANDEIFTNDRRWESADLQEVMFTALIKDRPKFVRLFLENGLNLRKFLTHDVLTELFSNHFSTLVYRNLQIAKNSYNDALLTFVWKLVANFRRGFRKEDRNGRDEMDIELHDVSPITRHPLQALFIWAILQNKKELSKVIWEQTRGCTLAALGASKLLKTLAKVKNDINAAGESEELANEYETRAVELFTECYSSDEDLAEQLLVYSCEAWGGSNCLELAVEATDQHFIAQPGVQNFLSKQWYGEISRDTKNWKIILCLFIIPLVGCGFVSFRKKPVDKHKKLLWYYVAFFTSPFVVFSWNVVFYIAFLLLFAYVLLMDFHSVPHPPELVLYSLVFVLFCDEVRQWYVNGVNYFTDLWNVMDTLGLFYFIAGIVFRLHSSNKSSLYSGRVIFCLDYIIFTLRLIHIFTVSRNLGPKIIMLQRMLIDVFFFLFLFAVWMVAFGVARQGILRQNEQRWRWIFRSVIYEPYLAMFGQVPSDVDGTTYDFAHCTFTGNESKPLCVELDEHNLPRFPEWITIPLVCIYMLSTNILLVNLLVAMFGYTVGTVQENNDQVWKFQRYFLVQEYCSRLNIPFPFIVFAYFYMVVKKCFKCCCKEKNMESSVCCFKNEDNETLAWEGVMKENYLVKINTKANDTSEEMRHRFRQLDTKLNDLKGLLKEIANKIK
Experiment: agonist-induced 45Ca2+ uptake assay, CHO cells expressing human TRPM8
Format: cell-based
Conditions: 100 µM menthol; CHO cells; mean ± SD, triplicate wells; read-out: IC50, menthol induced human TRPM8 channel activation
pIC50: −log10 of the molar value.
quantity_measured: pIC50

>>> quantitative_result("COc1cc(CN(CCN)C(=O)c2cccs2)ccc1OCc1ccccc1")
9.00

====

Molecular target: mouse TRPM8 (Mus musculus, UniProt Q8R4D5)
Construct: expressed in transfected cells; host or cells: T-REx-CHO (Chinese hamster ovary), tetracycline-induced
Sequence (Q8R4D5 whole entry): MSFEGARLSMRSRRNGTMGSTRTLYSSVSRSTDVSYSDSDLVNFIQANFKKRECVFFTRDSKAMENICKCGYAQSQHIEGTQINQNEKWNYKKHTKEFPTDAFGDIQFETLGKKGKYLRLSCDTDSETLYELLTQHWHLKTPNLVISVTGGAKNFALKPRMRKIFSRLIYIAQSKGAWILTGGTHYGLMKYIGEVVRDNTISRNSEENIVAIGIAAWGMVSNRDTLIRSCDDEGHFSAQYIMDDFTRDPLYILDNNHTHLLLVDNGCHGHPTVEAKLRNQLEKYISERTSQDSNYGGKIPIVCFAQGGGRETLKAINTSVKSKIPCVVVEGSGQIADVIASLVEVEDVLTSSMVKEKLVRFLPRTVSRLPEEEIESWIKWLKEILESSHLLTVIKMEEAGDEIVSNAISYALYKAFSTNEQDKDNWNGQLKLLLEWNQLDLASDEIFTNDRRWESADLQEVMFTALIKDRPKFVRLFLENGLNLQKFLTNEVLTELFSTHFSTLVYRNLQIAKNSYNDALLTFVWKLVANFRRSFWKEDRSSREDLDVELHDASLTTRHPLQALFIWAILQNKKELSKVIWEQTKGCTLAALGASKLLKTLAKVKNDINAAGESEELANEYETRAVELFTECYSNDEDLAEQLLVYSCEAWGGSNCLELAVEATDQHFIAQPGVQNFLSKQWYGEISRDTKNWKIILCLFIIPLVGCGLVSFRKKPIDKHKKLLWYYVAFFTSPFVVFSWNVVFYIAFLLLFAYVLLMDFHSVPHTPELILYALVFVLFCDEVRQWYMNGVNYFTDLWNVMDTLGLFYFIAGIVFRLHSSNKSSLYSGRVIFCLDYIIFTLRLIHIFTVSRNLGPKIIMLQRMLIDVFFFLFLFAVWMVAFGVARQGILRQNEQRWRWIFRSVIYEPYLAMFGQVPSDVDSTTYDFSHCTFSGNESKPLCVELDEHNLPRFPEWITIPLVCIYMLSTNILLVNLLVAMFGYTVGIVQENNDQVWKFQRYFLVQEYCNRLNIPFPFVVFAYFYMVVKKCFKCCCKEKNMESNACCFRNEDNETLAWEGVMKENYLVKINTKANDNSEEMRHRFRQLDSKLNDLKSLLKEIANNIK
Assay: agonist-induced 45Ca2+ uptake assay, CHO cells expressing mouse TRPM8
Format: cell-based
Conditions: 1 µM icilin, mean ± SD, triplicate wells, read-out: IC50, icilin induced mouse TRPM8 channel activation
quantity_measured: IC50 (nM)

>>> quantitative_result("COc1cc(CN(CCN)C(=O)c2cccs2)ccc1OCc1ccccc1")
6
